- protocol-text: inhibitors of larval lipid processing in zebrafish, primary screen, whole organism, PED6 fluorescence, gall bladder and intestine (AID 686);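 note: larvae 5 to 7 days old with five fish per well; signal comes from phospholipase A2 cleavage of quenched PED6 carried via bile; overnight exposure to compound and PED6 before scoring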
- assay-setup: Zebrafish larvae PED6 lipid processing, fluorescence scoring; screened at 20 µM (by protocol)
Active and inactive are the calls of the source.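 Rule for the calls: active = a full or partial loss of lipid-probe fluorescence in the fish gall bladder, intestine or both, judged by eye; inactive = no fluorescence loss, or compound toxic to the fish.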
experimental-readout: outcome

Worked examples follow.
| molecule | outcome |
| --- | --- |
| CCOc1nc(Oc2cccc(C(=O)O)c2)nc(Oc2cccc(C(=O)O)c2)n1 | inactive |
| CCNC(=O)N(C(=O)NCC)n1c(C)nnc1C | inactive |
| CC(=O)OCC(=O)[C@@]12OC(C)(C)O[C@@H]1C[C@H]1[C@@H]3C[C@H](F)C4=CC(=O)C=C[C@]4(C)[C@@]3(F)[C@@H](O)C[C@@]12C | inactive |
| Cc1cc(C)c(C#N)c(SCC(=O)N2CCN(Cc3ccccc3)CC2)n1 | inactive |

Query :: // query outcome value for entry Cc1cccc(OCc2nc(C)cc(=O)[nH]2)c1
Result :: inactive

---

Measured inhibition of aggregation, listed per entry.
- protocol-text: inhibitors of mutant huntingtin aggregation, primary screen, imaging, exon1htt(103Q)mCFP cells, high-content imaging (AID 483);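 note: compound exposure lasted 3 days before fixation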
- assay-setup: exon1htt(103Q)mCFP cell line, aggregate imaging, at 2 µM; stronger effect = higher value
The source made the active and inactive calls.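 The calls were made as follows: active = visual image review flags a hit and inhibition of aggregation exceeds 20%; inconclusive = visual hit but inhibition at or below 20%; inactive = no hit on visual image review.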

Sample records with inhibition of aggregation:
| molecule | result |
| --- | --- |
| N#CCc1nc2c3c4c(sc3ncn2n1)CCCC4 | -155% (inactive) |
| O=C(COc1ccccc1)Nc1ccc(-c2nnc(-c3ccco3)o2)cc1 | 7.5% (inactive) |
| Cc1c(OCC(F)(F)F)ccnc1CS(=O)c1nc2ccccc2[nH]1 (stereo not drawn) | 8.2% (inactive) |
| CCOC(=O)c1ccc2nc(NC(NC(C)=O)(C(=O)OC)C(F)(F)F)sc2c1 (stereo not drawn) | -4% (inactive) |
| O=C(NC1(C(F)(F)F)C(=O)Nc2c1c(=O)[nH]c(=O)n2Cc1ccco1)C1CCCCC1 (stereo not drawn) | -6.3% (inactive) |
| Nc1ccc(S(=O)(=O)c2ccc(N)cc2)cc1 | 0.3% (inactive) |

Query :: Look at this molecule and give its reported inhibition of aggregation. O=c1cc(NCc2ccccc2)nc2n1CCCS2
Result :: -16.3% (inactive)

Query :: Recorded inhibition of aggregation of C[C@H]1C[C@@H]2[C@H]([C@@H](O)C[C@@]3(C)[C@H]2CC[C@]3(O)C(=O)CO)[C@@]2(C)C=CC(=O)C=C12 , please.
Result :: 10.3% (inactive)

Query :: Record request: inhibition of aggregation value, item CC(=O)NCCCCCCNC(C)=O
Result :: -11.6% (inactive)

---

- protocol-text: DUSP6 inhibitors restoring Erk phosphorylation by chemical complementation, primary imaging in DUSP6-transfected HeLa (AID 609)
- assay-setup: HeLa MKP-3 transfected, phospho-Erk imaging KS statistic; measured here: cell density z-score; at 10 µM; cells stimulated with TPA for 15 min
experimental-readout: z-score
Enter the number alone.

See these solved cases before continuing.
| molecule | experimental-readout | number |
| --- | --- | --- |
| O=C(CCC(=O)CCN1CCCCC1)CCN1CCCCC1 | z-score | -0.3 |
| O=C1CC(NCc2ccc3c(c2)OCO3)C(=O)N1Cc1ccc2c(c1)OCO2 (configuration not stated) | z-score | 0.834 |
| CN1C2C=C3C(C#N)=C(N)C(C#N)(C#N)[C@@H](c4ccc(Cl)cc4)[C@@H]3C1CC2 (some centres not stated) | z-score | 1.1 |

Query :: Data request, read-out z-score, for CC(=O)C1=C(O)C(=O)N(c2ccc(C(=O)O)cc2)C1c1ccccc1 (configuration not stated)
Result :: 1.33

Query :: Can you look up the measured z-score of c1cncc(Oc2cccc(Oc3cccnc3)c2)c1 for me?
Result :: -0.336

Query :: Consider the molecule O=S(=O)(c1ccc(Cl)cc1)N1CCC(N2CCCCCC2)CC1 and give its measured z-score.
Result :: -0.279
